biological target: T1, hmm.hTfRC (REGN2431), human transferrin receptor extracellular domain with hexahistidine-myc-myc tag (human, UniProt P02786 89-760); assay: SPR (Biacore), mAb captured on anti-human Fc, 100 nM hTFR-mmh, 25 C
T1 construct: Monomeric recombinant protein, 79210 g/mol; also called hTFR-mmh; His-myc-myc-hTFRC ecto
T1 sequence (P02786 other isoform, or with tags, fused parts or gaps): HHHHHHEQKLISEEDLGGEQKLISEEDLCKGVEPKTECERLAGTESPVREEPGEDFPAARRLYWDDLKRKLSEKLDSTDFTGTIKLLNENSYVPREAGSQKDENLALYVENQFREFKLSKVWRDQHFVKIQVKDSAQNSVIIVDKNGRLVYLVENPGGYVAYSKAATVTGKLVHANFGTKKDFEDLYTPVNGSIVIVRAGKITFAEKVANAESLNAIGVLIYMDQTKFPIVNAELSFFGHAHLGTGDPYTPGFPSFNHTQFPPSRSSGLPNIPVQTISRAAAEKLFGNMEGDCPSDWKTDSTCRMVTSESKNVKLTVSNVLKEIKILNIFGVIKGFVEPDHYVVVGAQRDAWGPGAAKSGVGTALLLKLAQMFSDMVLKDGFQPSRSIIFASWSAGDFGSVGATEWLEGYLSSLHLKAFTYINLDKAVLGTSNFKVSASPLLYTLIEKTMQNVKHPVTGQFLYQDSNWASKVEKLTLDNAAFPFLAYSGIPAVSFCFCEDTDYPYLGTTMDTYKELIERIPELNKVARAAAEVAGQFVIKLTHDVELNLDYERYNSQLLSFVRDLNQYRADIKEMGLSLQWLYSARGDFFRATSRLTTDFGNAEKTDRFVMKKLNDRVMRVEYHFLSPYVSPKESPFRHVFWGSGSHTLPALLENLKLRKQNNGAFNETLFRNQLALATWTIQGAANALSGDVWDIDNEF
Endpoint: kon (M⁻¹ s⁻¹)

- Binder: "12799B (antibody, human IgG1, kappa, V domains shown, Tested as bivalent human IgG1 from CHO primary supernatant; also called H1H12799B; REGN17508) VH: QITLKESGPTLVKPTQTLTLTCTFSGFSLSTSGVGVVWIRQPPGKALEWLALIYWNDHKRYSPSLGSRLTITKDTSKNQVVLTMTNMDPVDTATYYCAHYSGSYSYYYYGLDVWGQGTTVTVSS VL: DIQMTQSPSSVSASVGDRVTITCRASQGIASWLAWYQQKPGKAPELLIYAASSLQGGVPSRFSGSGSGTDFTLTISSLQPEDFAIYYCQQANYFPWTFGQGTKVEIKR"
  Quantity unit: "M⁻¹ s⁻¹"
  Recorded value: 77600
- Binder: "12802B (antibody, human IgG1, kappa, V domains shown, Tested as bivalent human IgG1 from CHO primary supernatant) VH: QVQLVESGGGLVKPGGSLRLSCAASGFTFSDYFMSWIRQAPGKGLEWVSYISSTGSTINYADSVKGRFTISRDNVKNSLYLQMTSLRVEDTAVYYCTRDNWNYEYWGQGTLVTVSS VL: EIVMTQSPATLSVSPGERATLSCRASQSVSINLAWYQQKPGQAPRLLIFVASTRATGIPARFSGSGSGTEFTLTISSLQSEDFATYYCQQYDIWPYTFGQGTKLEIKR"
  Quantity unit: "M⁻¹ s⁻¹"
  Recorded value: 123000
- Binder: "69263 (antibody, human IgG1, kappa, V domains shown, Tested as bivalent human IgG1 from CHO primary supernatant) VH: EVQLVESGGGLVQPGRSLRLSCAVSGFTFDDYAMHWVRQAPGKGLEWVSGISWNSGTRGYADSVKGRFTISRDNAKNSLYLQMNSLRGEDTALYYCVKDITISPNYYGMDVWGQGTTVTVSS VL: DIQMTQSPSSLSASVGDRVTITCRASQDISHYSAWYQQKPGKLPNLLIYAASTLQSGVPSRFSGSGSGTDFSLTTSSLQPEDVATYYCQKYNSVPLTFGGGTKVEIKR"
  Quantity unit: "M⁻¹ s⁻¹"
  Recorded value: 177000
- Binder: "31874B (antibody, human IgG1, kappa, V domains shown, Tested as bivalent human IgG1 from CHO primary supernatant; also called H1H31874B; REGN17517) VH: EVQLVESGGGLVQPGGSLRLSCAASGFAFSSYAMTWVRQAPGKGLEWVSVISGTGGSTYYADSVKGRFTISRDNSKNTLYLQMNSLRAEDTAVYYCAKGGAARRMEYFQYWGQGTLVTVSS VL: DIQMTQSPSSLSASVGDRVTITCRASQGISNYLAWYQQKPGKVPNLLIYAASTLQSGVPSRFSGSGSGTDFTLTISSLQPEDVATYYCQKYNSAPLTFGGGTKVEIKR"
  Quantity unit: "M⁻¹ s⁻¹"
  Recorded value: 138000
